- target entity: JAK3 (Homo sapiens, UniProt P52333)
- Construct: 5 μl of catalytic domain recombinant Kinase enzyme+Tyr peptide substrate (Invitrogen, Calif.)
- Sequence (P52333 822-1111 limits assumed): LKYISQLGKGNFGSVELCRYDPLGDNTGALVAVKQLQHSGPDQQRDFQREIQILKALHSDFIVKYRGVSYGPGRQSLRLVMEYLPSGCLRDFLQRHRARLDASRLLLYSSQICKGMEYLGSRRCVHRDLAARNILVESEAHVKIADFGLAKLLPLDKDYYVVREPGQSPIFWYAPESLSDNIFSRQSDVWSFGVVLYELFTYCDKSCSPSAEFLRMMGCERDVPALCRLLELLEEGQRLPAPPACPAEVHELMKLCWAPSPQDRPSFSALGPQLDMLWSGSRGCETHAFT
- experiment: Z'-LYTE kinase assay, JAK3 tyrosine phosphorylation activity
pIC50: −log10 of the molar value.
measure name: pIC50

Note pIC50 for the compound shown: CC(C)CNc1cc(Nc2cccc(NC(=O)N3CCCC3)c2)ncc1C(N)=O
7.00 to 8.00

Note pIC50 for the compound shown: COC(=O)Nc1cc(Nc2ncc(C(N)=O)c(NCc3ccccc3)n2)ccc1Cl
7.00 to 8.00

Note pIC50 for the compound shown: CNC(=O)c1cnc(Nc2cccc(NC(C)=O)c2)cc1NCc1ccccc1
< 6.00

Note pIC50 for the compound shown: CC[C@H](C)Nc1nc(Nc2cccc(NC(=O)COC)c2)ncc1C(N)=O
7.00 to 8.00

Note pIC50 for the compound shown: C[C@@H](Nc1nc(Nc2ccc(Cl)c(NC(=O)N3CCOCC3)c2)ncc1C(N)=O)c1ccccc1
8.00 to 9.00

Note pIC50 for the compound shown: NC(=O)c1cnc(Nc2ccc(F)c(NC(=O)N3CCCC3)c2)cc1N[C@H](CO)c1ccccc1
7.00 to 8.00

Note pIC50 for the compound shown: NC(=O)c1cnc(Nc2ccc(Cl)c(NC(=O)NC3CCC3)c2)nc1NCc1ccccc1
6.00 to 7.00

Note pIC50 for the compound shown: NC(=O)c1cnc(Nc2cccc(NC(=O)N3CC[C@@H](F)C3)c2)nc1NCc1ccccc1F
7.00 to 8.00
